# System: JIMT-1
# protocol_description: In vitro proliferation inhibition of small molecule payloads, CTG, 6 days (3.2)
# Type: cell-based
# condition_description: Homo sapiens, JIMT-1, 144 h, read-out: JIMT-1 IC50
value_kind: pIC50
One number for each entry, as −log10 of the molar value.

Query: Quick check: pIC50 of CC[C@@]1(O)C(=O)OCc2c1cc1n(c2=O)Cc2c-1nc1cc(F)c(C)c3c1c2[C@@H](NC(=O)CCN)CC3 [Reference Example 1] ?
Response: 7.44

The reported numbers originate from patent US20250195681A1.
